Please provide measured self-cleavage kobs at 10000 uM GlcN6P for the entries that follow.
B1: glmS ribozyme (parent)
chain: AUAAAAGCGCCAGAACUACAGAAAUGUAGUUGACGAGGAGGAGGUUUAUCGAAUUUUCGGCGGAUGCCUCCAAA

variants of: B1; assay: self-cleavage kobs at 10000 uM GlcN6P; higher = faster cleavage; RNA array; settings: with glucosamine-6-phosphate
This sample holds only a part of the variants without activity.
Answers are plain numbers, in s⁻¹.

Each variant below has a reported value. Please supply its self-cleavage kobs at 10000 uM GlcN6P.
1. U54G
2. U46C U65A
3. C16G U45C C67G
4. A39G C71U
5. G43U U54A U55A C67G C68U
6. C71G
7. G41C C71G
8. A53U U55A C67G

OUTPUT:
[0.0511, 0.00295, 0.000811, 0.0284, "7.92e-05", 0.00313, "5.71e-05", 0.00212]
